- Method notes: vital parameters of live anesthetized rats monitored during isometric force measurement
- Format: in vivo
- Experimental setup: 6 mg i.p., anesthetized rat
Quantity kind: Maximum change of vital parameters (%) oxygen saturation
Answers are plain numbers, in %.

Examples with answers:
>>> result_number("O=C1c2ccncc2N=C2N(c3ccc(OC(F)(F)F)cc3)CCC12O (stereo not shown)")
"−12"
>>> result_number("Cc1cc2c(s1)N=C1N(c3ccc(N4CCOCC4)cc3)CCC1(O)C2=O (stereo not shown)")
"−28"
>>> result_number("O=C1c2ccncc2N=C2N(c3ccccc3)CCC12O (stereo not shown)")
"−19"

Asked: Give recorded Maximum change of vital parameters (%) oxygen saturation. O=C1c2ccsc2N=C2N(c3ccc(N4CCOCC4)cc3)CCC12O (stereo not shown)
Given back: −1
